- testedTarget: T1, human CD33 extracellular domain (human, UniProt P20138 18-259)
- T1 construct: soluble monomeric ECD; also called human CD33 ECD; hCD33
- measurementDescription: SPR, Fab captured, 37C;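 further: surface plasmon resonance with Fabs captured on anti-Fab surface, soluble monomeric CD33 as analyte at several concentrations, double-referenced 1:1 model fit, KD as koff/kon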
measurementName: kon (M⁻¹ s⁻¹)
# value in M⁻¹ s⁻¹; strip the unit string

For the binder ADI-11830 Fab (Fab, V domains shown, Fab fragment; also called Ab9) VH: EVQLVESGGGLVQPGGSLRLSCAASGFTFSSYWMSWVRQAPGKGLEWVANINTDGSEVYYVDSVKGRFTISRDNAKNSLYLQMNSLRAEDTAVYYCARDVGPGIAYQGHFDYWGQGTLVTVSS VL: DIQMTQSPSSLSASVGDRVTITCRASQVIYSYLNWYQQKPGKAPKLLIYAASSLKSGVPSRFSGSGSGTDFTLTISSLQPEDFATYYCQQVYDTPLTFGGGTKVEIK , what kon is on record? 1.99e+06
